Target: Serine/threonine-protein kinase 3 (Homo sapiens) (UniProt Q13188)
Sequence (Q13188 whole entry): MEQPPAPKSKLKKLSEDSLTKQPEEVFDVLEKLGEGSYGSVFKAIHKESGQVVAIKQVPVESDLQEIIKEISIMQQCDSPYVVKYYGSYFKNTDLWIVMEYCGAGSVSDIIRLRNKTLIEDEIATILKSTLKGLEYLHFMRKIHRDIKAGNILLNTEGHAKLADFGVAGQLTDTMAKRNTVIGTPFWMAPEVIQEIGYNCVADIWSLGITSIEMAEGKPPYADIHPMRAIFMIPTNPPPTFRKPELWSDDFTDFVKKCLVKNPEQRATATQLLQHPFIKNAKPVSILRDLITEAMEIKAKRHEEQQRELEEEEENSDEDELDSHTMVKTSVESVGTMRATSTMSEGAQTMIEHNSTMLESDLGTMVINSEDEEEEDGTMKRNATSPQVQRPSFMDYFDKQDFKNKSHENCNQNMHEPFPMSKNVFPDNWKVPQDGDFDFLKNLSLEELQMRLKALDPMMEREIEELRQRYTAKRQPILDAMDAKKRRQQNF
Test: Inhibition of human MST2 assessed as residual activity at 0.1 uM relative to control
measured-parameter: Activity (%)

line-notation | result
Cn1cc(/C=C2\C(=O)Nc3ccc(S(N)(=O)=O)cc32)c2ccccc21 | 91
COc1ccc2c(c1)c(/C=C1\C(=O)Nc3ccc(S(=O)(=O)N(C)C)cc31)cn2C | 101
COc1ccc2c(c1)c(/C=C1\C(=O)Nc3ccc(S(N)(=O)=O)cc31)cn2C | 86
CN(C)S(=O)(=O)c1ccc2c(c1)/C(=C/c1cn(C)c3ccc(O)cc13)C(=O)N2 | 98
CNS(=O)(=O)c1ccc2c(c1)/C(=C/c1cn(C)c3ccc(OC)cc13)C(=O)N2 | 95
COc1ccc2[nH]cc(/C=C3\C(=O)Nc4ccc(S(N)(=O)=O)cc43)c2c1 | 101
